assay: Phase 1 clinical DDI study: steady-state plasma PK (noncompartmental analysis) with and without modafinil
Assay type: in vivo, Human
conditions: human, plasma, oral, Day 14, without modafinil; steady state; plasma; patients; read-out: T1/2, GM (CV%) (converted)
outcome.measure: half-life (h)

# compound, recorded.number
rows = [
    ("Cn1cnc2c(F)c(Nc3ccc(Br)cc3F)c(C(=O)NOCCO)cc21 [Binimetinib, binimetinib]", 4.62),
    ("COC(=O)N[C@@H](C)CNc1nccc(-c2cn(C(C)C)nc2-c2cc(Cl)cc(NS(C)(=O)=O)c2F)n1 [Encorafenib, encorafenib]", 3.48),
]
